- System: Hepacivirus hominis
- Assay summary: Inhibition of (CAG)33/FF/HCV/Ren.pA51 mRNA cap-dependent translation assessed as reduction in firefly level at […] after 60 mins by dual luciferase reporter gene assay
Activity calls are given as the source filed them. The rule behind the calls is not given here.
Measured quantity: inhibition

Examples with their reported inhibition follow.
>>> result_value("O=C1C=C/C(=C/[C@H](O)COC(=O)c2ccccc2)O1")
"inactive"
>>> result_value("O=c1cc(-c2ccccc2)oc2c(Cc3cccc(O)c3O)c(O)cc(O)c12")
"inactive"
>>> result_value("COC(=O)/C=C/C(=O)C[C@H](O)COC(=O)c1ccccc1")
"inactive"
>>> result_value("O=C1C[C@@H](c2ccccc2)Oc2c(Cc3cccc(O)c3O)c(O)c(Cc3cccc(O)c3O)c(O)c21")
"inactive"
>>> result_value("O=c1cc(-c2ccccc2)oc2cc(O)cc(O)c12")
"inactive"

Field: next molecule
Incoming: Suppose we examine the molecule `O=C1C[C@@H](c2ccccc2)Oc2cc(O)c(Cc3cccc(O)c3O)c(O)c21` ; what inhibition value has been reported?
Outgoing: inactive

----------
- Test system: Plasmodium falciparum
- Assay summary: Antimalarial activity against chloroquine-resistant Plasmodium falciparum Dd2 assessed as reduction in parasite growth at 40 uM incubated for 72 hrs by DAPI staining based fluorescence assay
- Format: functional, organism-based
Calls of active or inactive are those of the source. The rule behind the calls is not given here.
Measured quantity: Activity

>>> result_value("O=C1C[C@@H](c2ccccc2)Oc2c(Cc3cccc(O)c3O)c(O)c(Cc3cccc(O)c3O)c(O)c21")
"inactive"
>>> result_value("O=C1C[C@@H](c2ccccc2)Oc2cc(O)cc(O)c21")
"inactive"
>>> result_value("C[C@@](O)(COC(=O)/C=C/c1ccccc1)[C@H](O)COC(=O)c1ccccc1")
"inactive"
>>> result_value("CC(C)=CCC[C@@H](C)[C@H]1C[C@H](O)[C@@]2(C)C3=CC[C@H]4C(C)(C)[C@@H](O)CC[C@]4(C)C3=CC[C@]12C")
"inactive"

----------
- Assay summary: Cytotoxicity against HEK293 cells assessed as growth inhibition at 40 uM relative to control
- Type: cell-based
- Conditions: human, read-out: GI
Record form. Attribute: inhibition at 40 µM. Fill in for each entry.
One number for each entry, in %.

>>> result_value("O=C1C[C@@H](c2ccccc2)Oc2c(Cc3ccccc3O)c(O)c(Cc3ccccc3O)c(O)c21 [DICHAMANETIN]")
75

Field: next molecule
Incoming: Suppose we examine the molecule `COC(=O)/C=C/C(=O)C[C@H](O)COC(=O)c1ccccc1` ; what inhibition at 40 µM value has been reported?
Outgoing: 100

Provenance of the data: ChEMBL document CHEMBL4602686
